Biological target: human M3 receptor (Homo sapiens, UniProt P20309)
Construct: expressed in transfected cells; host or cells: CHO cells
Sequence (P20309 whole entry): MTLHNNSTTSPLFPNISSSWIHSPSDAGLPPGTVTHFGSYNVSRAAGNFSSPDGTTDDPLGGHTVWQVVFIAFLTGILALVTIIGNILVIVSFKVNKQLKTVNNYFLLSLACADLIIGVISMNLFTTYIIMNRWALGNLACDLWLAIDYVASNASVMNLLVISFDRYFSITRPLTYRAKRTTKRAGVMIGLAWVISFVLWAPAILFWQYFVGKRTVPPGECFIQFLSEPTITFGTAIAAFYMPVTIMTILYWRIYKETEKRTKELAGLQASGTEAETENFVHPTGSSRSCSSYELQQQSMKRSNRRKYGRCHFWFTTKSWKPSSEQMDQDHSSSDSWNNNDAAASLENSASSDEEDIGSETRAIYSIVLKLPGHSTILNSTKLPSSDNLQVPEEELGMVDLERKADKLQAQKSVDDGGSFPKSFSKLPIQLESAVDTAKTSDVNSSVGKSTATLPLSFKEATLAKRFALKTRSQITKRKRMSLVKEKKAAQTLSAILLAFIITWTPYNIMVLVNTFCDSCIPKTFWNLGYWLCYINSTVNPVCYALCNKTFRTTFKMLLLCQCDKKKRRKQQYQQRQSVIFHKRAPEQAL
Assay: Test for binding to human M3 receptor
Where a name gives a salt, the structure may show the parent alone.
endpoint label: pKi
By convention, pKi is the negative base-10 log of a molar concentration.

CN(CCN1CCC(OC(=O)Nc2ccccc2-c2ccccc2)CC1)C(=O)CCCCCNc1ccc(NC(=O)CCCN(C)C(=O)CO[C@H]2Cc3ccccc3C23CCN(CC[C@@]2(c4ccc(F)cc4)CN(C(=O)c4cc(C(F)(F)F)cc(C(F)(F)F)c4)CO2)CC3)cc1 [Example 82, trihydrochloride]    8.80

Item CN(CCN1CCC(OC(=O)Nc2ccccc2-c2ccccc2)CC1)C(=O)CCCCCNc1ccc(C(=O)N(C)CCCN(C)C(=O)CO[C@H]2Cc3ccccc3C23CCN(CC[C@@]2(c4ccc(F)cc4)CN(C(=O)c4cc(C(F)(F)F)cc(C(F)(F)F)c4)CO2)CC3)cc1F [Example 13, trihydrochloride] has what recorded pKi?
8.92

Would you mind telling me what pKi value was observed for Cc1nc(N(C)CCCCCC(=O)N(C)CCN2CCC(OC(=O)Nc3ccccc3-c3ccccc3)CC2)sc1C(=O)N(C)CCCN(C)C(=O)CO[C@H]1Cc2ccccc2C12CCN(CC[C@@]1(c3ccc(F)cc3)CN(C(=O)c3cc(C(F)(F)F)cc(C(F)(F)F)c3)CO1)CC2 [Example 106, trihydrochloride] ?
8.89

Please give the measured pKi for this compound: CN(CCN1CCC(OC(=O)Nc2ccccc2-c2ccccc2)CC1)C(=O)CCCCCNc1cccc(C(=O)N(C)CCCN(C)C(=O)CO[C@H]2Cc3ccccc3C23CCN(CC[C@@]2(c4ccc(F)cc4)CN(C(=O)c4cc(C(F)(F)F)cc(C(F)(F)F)c4)CO2)CC3)c1 [Example 43, trihydrochloride]
8.59

----------
Molecular target: human NK2 receptor (Homo sapiens)
Construct: expressed in transfected cells; host or cells: COS cells
Assay: Test for binding to human NK2 receptor
Counter-ions that a name gives are not always drawn.
Below, each entry is listed alongside its reported Ki.
Lab book: enter the figure in nM, no units written.

Field: example entries. Status: answers known.
CN(CCN1CCC(OC(=O)Nc2ccccc2-c2ccccc2)CC1)C(=O)CCCCCNc1ccc(C(=O)N(C)CCCN(C)C(=O)CO[C@H]2Cc3ccccc3C23CCN(CC[C@@]2(c4ccc(F)cc4)CN(C(=O)c4cc(C(F)(F)F)cc(C(F)(F)F)c4)CO2)CC3)c(Cl)c1 [Example 85, trihydrochloride]    1
CN(CCCCCC(=O)N(C)CCN1CCC(OC(=O)Nc2ccccc2-c2ccccc2)CC1)Cc1cccc(C(=O)N(C)CCCN(C)C(=O)CO[C@H]2Cc3ccccc3C23CCN(CC[C@@]2(c4ccc(F)cc4)CN(C(=O)c4cc(C(F)(F)F)cc(C(F)(F)F)c4)CO2)CC3)c1 [Example 41, trihydrochloride]    0.26
CN(CCN1CCC(OC(=O)Nc2ccccc2-c2ccccc2)CC1)C(=O)CCCCCNc1cccc(C(=O)N(C)CCCN(C)C(=O)CO[C@H]2Cc3ccccc3C23CCN(CC[C@@]2(c4ccc(F)cc4)CN(C(=O)c4cc(C(F)(F)F)cc(C(F)(F)F)c4)CO2)CC3)c1 [Example 43, trihydrochloride]    1.3
Cc1nc(NCCCCCC(=O)N(C)CCN2CCC(OC(=O)Nc3ccccc3-c3ccccc3)CC2)sc1C(=O)N(C)CCN(C)C(=O)CO[C@H]1Cc2ccccc2C12CCN(CC[C@@]1(c3ccc(F)cc3)CN(C(=O)c3cc(C(F)(F)F)cc(C(F)(F)F)c3)CO1)CC2 [Example 107, trihydrochloride]    0.59
Cc1cc(NCCCCCC(=O)N(C)CCN2CCC(OC(=O)Nc3ccccc3-c3ccccc3)CC2)ccc1C(=O)N(C)CCCN(C)C(=O)CO[C@H]1Cc2ccccc2C12CCN(CC[C@@]1(c3ccc(F)cc3)CN(C(=O)c3cc(C(F)(F)F)cc(C(F)(F)F)c3)CO1)CC2 [Example 18, trihydrochloride]    0.42

Consider the molecule shown here: CN(CCN1CCC(OC(=O)Nc2ccccc2-c2ccccc2)CC1)C(=O)CCCCCNc1ccc(C(=O)N(C)CCN(C)C(=O)CO[C@H]2Cc3ccccc3C23CCN(CC[C@@]2(c4ccc(F)cc4)CN(C(=O)c4cc(C(F)(F)F)cc(C(F)(F)F)c4)CO2)CC3)cc1 [Example 16, trihydrochloride] What is its recorded Ki?
0.49

Which measured Ki value corresponds to CN(CCN1CCC(OC(=O)Nc2ccccc2-c2ccccc2)CC1)C(=O)CCCCCNc1ccc(NC(=O)CCCN(C)C(=O)CO[C@H]2Cc3ccccc3C23CCN(CC[C@@]2(c4ccc(F)cc4)CN(C(=O)c4cc(C(F)(F)F)cc(C(F)(F)F)c4)CO2)CC3)cc1 [Example 82, trihydrochloride] ?
0.6

Given the entry CN(CCN1CCC(OC(=O)Nc2ccccc2-c2ccccc2)CC1)C(=O)CCCCCNc1ncc(C(=O)N(C)CCCN(C)C(=O)CO[C@H]2Cc3ccccc3C23CCN(CC[C@@]2(c4ccc(F)cc4)CN(C(=O)c4cc(C(F)(F)F)cc(C(F)(F)F)c4)CO2)CC3)cn1 [Example 14, trihydrochloride] , report its measured Ki.
0.67

----------
Here, each record is paired with measured Ki data.
Biological target: human NK2 receptor (Homo sapiens, UniProt P21452)
Construct: expressed in transfected cells; host or cells: COS cells
Experiment: Test for binding to human NK2 receptor
Details: COS cells expressing human NK2 receptor, [3H]SR 48968 1 nM; Ki from IC50 and Kd; read-out: Ki
Provide the reading as a plain figure in nM.

Take a look at these entries with their results.
CN(CCN1CCC(OC(=O)Nc2ccccc2-c2ccccc2)CC1)C(=O)CCNc1ccc(C(=O)N(C)CCCN(C)C(=O)CO[C@H]2Cc3ccccc3C23CCN(CC[C@@]2(c4ccc(F)cc4)CN(C(=O)c4cc(C(F)(F)F)cc(C(F)(F)F)c4)CO2)CC3)cc1 [Example 94]    0.75
CN(CCN1CCC(OC(=O)Nc2ccccc2-c2ccccc2)CC1)C(=O)CCCCCCNc1ccc(C(=O)N(C)CCCN(C)C(=O)CO[C@H]2Cc3ccccc3C23CCN(CC[C@@]2(c4ccc(F)cc4)CN(C(=O)c4cc(C(F)(F)F)cc(C(F)(F)F)c4)CO2)CC3)cc1.Cl.Cl.Cl [Example 39, trihydrochloride]    0.82
CN(CCCCCC(=O)N(C)CCN1CCC(OC(=O)Nc2ccccc2-c2ccccc2)CC1)Cc1ccc(C(=O)N(C)CCCN(C)C(=O)CO[C@H]2Cc3ccccc3C23CCN(CC[C@@]2(c4ccc(F)cc4)CN(C(=O)c4cc(C(F)(F)F)cc(C(F)(F)F)c4)CO2)CC3)cc1 [Example 74]    0.14

Attention now shifts to the item below.
Any idea what Ki was measured for CN(CCN1CCC(OC(=O)Nc2ccccc2-c2ccccc2)CC1)C(=O)CCCCCNc1ccc(C(=O)N(C)CCCN(C)C(=O)CO[C@H]2Cc3ccccc3C23CCN(CC[C@@]2(c4ccc(F)cc4)CN(C(=O)c4cc(C(F)(F)F)cc(C(F)(F)F)c4)CO2)CC3)s1 [Example 4] ?
0.62

----------
Target: human NK2 receptor (Homo sapiens)
Construct: expressed in transfected cells; host or cells: COS cells
Sequence (P21452 1-398): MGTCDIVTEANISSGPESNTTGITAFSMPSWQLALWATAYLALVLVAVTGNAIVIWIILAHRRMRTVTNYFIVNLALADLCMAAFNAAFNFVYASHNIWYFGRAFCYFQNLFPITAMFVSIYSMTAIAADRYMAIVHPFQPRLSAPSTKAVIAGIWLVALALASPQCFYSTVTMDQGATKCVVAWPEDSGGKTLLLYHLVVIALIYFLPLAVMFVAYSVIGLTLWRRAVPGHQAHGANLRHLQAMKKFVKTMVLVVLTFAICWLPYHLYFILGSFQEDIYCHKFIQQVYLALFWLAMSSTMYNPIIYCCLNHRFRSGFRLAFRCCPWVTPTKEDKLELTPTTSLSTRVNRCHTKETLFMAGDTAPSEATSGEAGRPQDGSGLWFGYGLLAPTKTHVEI
Experiment: Test for binding to human NK2 receptor
Conditions: COS cells expressing human NK2 receptor, [3H]SR 48968 1 nM; Ki from IC50 and Kd; read-out: Ki
Structures can show the parent of a compound that is named as a salt.
endpoint label: pKi
Please keep in mind that pKi is minus log10 of the molar concentration; only the number is needed.

CN(CCN1CCC(OC(=O)Nc2ccccc2-c2ccccc2)CC1)C(=O)CCCCCNc1nc2ccc(C(=O)N(C)CCCN(C)C(=O)CO[C@H]3Cc4ccccc4C34CCN(CC[C@@]3(c5ccc(F)cc5)CN(C(=O)c5cc(C(F)(F)F)cc(C(F)(F)F)c5)CO3)CC4)cc2s1 [Example 93]    9.26
CN(CCN1CCC(OC(=O)Nc2ccccc2-c2ccccc2)CC1)C(=O)CCCCCNc1ccc(C(=O)N(C)CCN(C)C(=O)CO[C@H]2Cc3ccccc3C23CCN(CC[C@@]2(c4ccc(F)cc4)CN(C(=O)c4cc(C(F)(F)F)cc(C(F)(F)F)c4)CO2)CC3)cc1 [Example 15]    9.04
Cc1cc(NCCCCCC(=O)N(C)CCN2CCC(OC(=O)Nc3ccccc3-c3ccccc3)CC2)sc1C(=O)N(C)CCN(C)C(=O)CO[C@H]1Cc2ccccc2C12CCN(CC[C@@]1(c3ccc(F)cc3)CN(C(=O)c3cc(C(F)(F)F)cc(C(F)(F)F)c3)CO1)CC2 [Example 89]    9.12
CN(CCN1CCC(OC(=O)Nc2ccccc2-c2ccccc2)CC1)C(=O)CCCCCN(C)c1ccc(C(=O)N(C)CCCN(C)C(=O)CO[C@H]2Cc3ccccc3C23CCN(CC[C@@]2(c4ccc(F)cc4)CN(C(=O)c4cc(C(F)(F)F)cc(C(F)(F)F)c4)CO2)CC3)cc1 [Example 76]    9.00
CN(CCN1CCC(OC(=O)Nc2ccccc2-c2ccccc2)CC1)C(=O)CCCCCNCc1ccc(C(=O)N(C)CCCN(C)C(=O)CO[C@H]2Cc3ccccc3C23CCN(CC[C@@]2(c4ccc(F)cc4)CN(C(=O)c4cc(C(F)(F)F)cc(C(F)(F)F)c4)CO2)CC3)nc1 [Example 7]    9.77
CN(CCN1CCC(OC(=O)Nc2ccccc2-c2ccccc2)CC1)C(=O)CCOCCNc1ccc(C(=O)N(C)CCCN(C)C(=O)CO[C@H]2Cc3ccccc3C23CCN(CC[C@@]2(c4ccc(F)cc4)CN(C(=O)c4cc(C(F)(F)F)cc(C(F)(F)F)c4)CO2)CC3)cc1 [Example 29, trihydrochloride]    9.12

Turning to the following compound.
Value lookup for pKi; key = CN(CCN1CCC(OC(=O)Nc2ccccc2-c2ccccc2)CC1)C(=O)CCCC1CCN(c2ccc(C(=O)N(C)CCCN(C)C(=O)CO[C@H]3Cc4ccccc4C34CCN(CC[C@@]3(c5ccc(F)cc5)CN(C(=O)c5cc(C(F)(F)F)cc(C(F)(F)F)c5)CO3)CC4)cc2)CC1 [Example 66, trihydrochloride]
9.07
